- TESTED_ON: human pancreas Glucokinase (GK) (Homo sapiens, UniProt P35557)
- Construct: (His)6; made in house; host or cells: Escherichia coli
- Sequence (P35557 whole entry): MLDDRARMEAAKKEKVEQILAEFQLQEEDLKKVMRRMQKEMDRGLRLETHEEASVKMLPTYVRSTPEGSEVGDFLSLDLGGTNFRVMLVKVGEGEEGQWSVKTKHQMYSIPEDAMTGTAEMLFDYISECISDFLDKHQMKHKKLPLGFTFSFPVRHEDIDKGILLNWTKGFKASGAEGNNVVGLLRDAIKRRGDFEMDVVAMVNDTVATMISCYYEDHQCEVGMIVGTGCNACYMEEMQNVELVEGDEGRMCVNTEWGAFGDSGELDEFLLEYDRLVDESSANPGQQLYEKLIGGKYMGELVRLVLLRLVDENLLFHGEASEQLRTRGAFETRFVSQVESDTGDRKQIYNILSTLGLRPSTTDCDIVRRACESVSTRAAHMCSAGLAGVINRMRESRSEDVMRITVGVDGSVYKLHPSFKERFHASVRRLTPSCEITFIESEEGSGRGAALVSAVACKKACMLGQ
- ASSAY_DETAILS: Glucokinase enzyme assay, pancreas GK
- Assay type: biochemical
- MEASUREMENT_CONTEXT: percentage increase in GK activity above vehicle control, compound 50 μM, 12 mM glucose
# reported activation at 50 µM; entries follow
TEST_READOUT: activation at 50 µM (%)

COc1ccc(CN2C(=O)C3=C(CCCC3)C2SCC(=O)Nc2ccc(C)cn2)cc1OC (stereo not shown)
168
COc1ccc([C@H](C)N2C(=O)C3=C(CCCC3)[C@@H]2SCC(=O)Nc2ccccn2)cc1 (single isomer, unassigned)
79
COc1ccc([C@H](C)N2C(=O)C3=C(CCCC3)[C@H]2SCC(=O)Nc2ccccn2)cc1 (single isomer, unassigned)
35
O=C(CSC1C2=C(CCCC2)C(=O)N1Cc1ccc(O)cc1)Nc1nccs1 (stereo not shown)
106
COc1ccc(CN2C(=O)C3=C(CCC3)C2SCC(=O)Nc2ccccn2)cc1 (stereo not shown)
190
O=C(CSC1C2=C(CCCC2)C(=O)N1Cc1ccncc1)Nc1ccccn1 (stereo not shown)
218
COC(=O)c1ccc(NC(=O)CSC2C3=C(CCCC3)C(=O)N2Cc2ccc(OC)c(OC)c2)nc1 (stereo not shown)
164

Values were extracted from patent US20070117808A1.
